test.system: VAV1 (Homo sapiens, UniProt P15498+Q96SW2)
Construct: A heterozygous VAV1 C-terminal HiBiT knock-in pool was generated at Monte Rosa Therapeutics from a clonal Jurkat cell; endogenous in cells; host or cells: Jurkat clone stably expressing LgBiT, homozygous GSPT1-G575N; heterozygous VAV1-HiBiT knock-in pool
assay.protocol: VAV1 degradation activity, VAV1-HiBiT knock-in Jurkat luminescence assay (Example A, Table 1)
Type: cell-based
measurement.conditions: Jurkat, VAV1-HiBiT knock-in Jurkat cells, luminescence read at 6 and 24 hours; read-out: VAV1 Dmax %
property.label: Dmax (%)
Kindly answer with a numeric value in %, unit omitted.

Some solved cases for reference:
Cn1ccc(C(F)(F)F)c(-c2ccc(-c3cccc(C4CCC(=O)NC4=O)c3Cl)cc2)c1=O (centres unmarked) [Compound 428] = 98.8
C[C@@H]1COC(=O)N1c1ccc(-c2cccc(C3CCC(=O)NC3=O)c2Cl)cc1 (some centres unmarked) [Compound 217] = 84.6
CN1CCC2(CC2)N(c2ccc(-c3cccc(C4CCC(=O)NC4=O)c3Cl)cc2)C1=O (centres unmarked) [Compound 366] = 97.8
CN1CC(=O)N(c2ccc(-c3cccc(C4CCC(=O)NC4=O)c3Cl)cc2)CC12CC2 (centres unmarked) [Compound 352] = 82.3
CN(C(=O)c1ccn(C)n1)c1ccc(-c2cccc(C3CCC(=O)NC3=O)c2Cl)cc1 (centres unmarked) [Compound 475] = 73.2
O=C1CCC(c2cccc(-c3ccc(N4CCC5(COC5)C4=O)cc3)c2Cl)C(=O)N1 (centres unmarked) [Compound 358] = 44.3

## Input Given the molecule Cc1nccn1Cc1ccc(-c2cccc(C3CCC(=O)NC3=O)c2Cl)cc1 (centres unmarked) [Compound 111] , what is its reported Dmax?
## Output 87.8

## Input So what does the record say about Dmax for O=C1CCC(c2c(F)ccc(-c3ccc(Cn4ccccc4=O)cc3)c2Cl)C(=O)N1 (centres unmarked) [Compound 143] ?
## Output 55

---

test.system: VAV1 (Homo sapiens, UniProt P15498+Q96SW2)
Construct: A heterozygous VAV1 C-terminal HiBiT knock-in pool was generated at Monte Rosa Therapeutics from a clonal Jurkat cell; endogenous in cells; host or cells: Jurkat clone stably expressing LgBiT, homozygous GSPT1-G575N; heterozygous VAV1-HiBiT knock-in pool
assay.protocol: VAV1 degradation activity, VAV1-HiBiT knock-in Jurkat luminescence assay (Example A, Table 1)
Type: cell-based
measurement.conditions: Jurkat, VAV1-HiBiT knock-in Jurkat cells, luminescence read at 6 and 24 hours; read-out: VAV1 Dmax %
property.label: Dmax (%)
// note: answer is a bare numeric in %

Illustrative cases are given below, each with its answer.
O=C1CCC(c2cccc(-c3ccc(Cn4ccccc4=O)nc3)c2Cl)C(=O)N1 (centres unmarked) [Compound 447] = 61.9
Cc1cc(-c2cccc(C3CCC(=O)NC3=O)c2Cl)ccc1-n1ccccc1=O (centres unmarked) [Compound 199] = 66.8
Cn1ccc(NCc2ccc(-c3cccc(C4CCC(=O)NC4=O)c3Cl)cc2)n1 (centres unmarked) [Compound 196] = 95.6

Let us examine a further case.
## Input Form entry - test system: VAV1 (Homo sapiens, UniProt P15498+Q96SW2); read-out: Dmax; molecule: CC1CCN(c2ccc(-c3cccc(C4CCC(=O)NC4=O)c3Cl)cc2)C(=O)C1 (centres unmarked) [Compound 332]
## Output 95.5

Source of measurements: patent US12257247B2
